assay: Metabolic stability in human liver microsomes assessed as unbound intrinsic clearance at 0.5 uM measured after 4 hrs; assay type: ADME, Microsome
This section presents compounds with their documented CL free values.

[
  {
    "compound smiles": "CN1CCN(CCNC(=O)[C@H](CCc2ccccc2)NC(=O)c2cc(Cl)c(Cl)[nH]2)CC1",
    "readout qualifier": "=",
    "CL free [mL/min/kg]": 217
  },
  {
    "compound smiles": "O=C(N[C@@H](CCc1ccccc1)C(=O)NCc1cccnc1)c1cc(Cl)c(Cl)[nH]1",
    "readout qualifier": "=",
    "CL free [mL/min/kg]": 1300
  },
  {
    "compound smiles": "C[C@H](NC(=O)[C@]1(NC(=O)c2cc(Cl)c(Cl)[nH]2)CO[C@H](c2ccccc2)C1)c1ncc2c(n1)CN(CC#N)C2",
    "readout qualifier": "=",
    "CL free [mL/min/kg]": 120
  },
  {
    "compound smiles": "C[C@H](NC(=O)[C@]1(NC(=O)c2cc(Cl)c(Cl)[nH]2)CO[C@H](c2cccc(C#N)c2)C1)c1ncc2c(n1)CN(C1CCN(C)CC1)C2",
    "readout qualifier": "<",
    "CL free [mL/min/kg]": 38.3
  },
  {
    "compound smiles": "O=C(N[C@@H](CCc1ccccc1)C(=O)NCc1ccccc1)c1cc(Cl)c(Cl)[nH]1",
    "readout qualifier": "=",
    "CL free [mL/min/kg]": 1530
  },
  {
    "compound smiles": "COC[C@H](NC(=O)[C@H](CCc1ccccc1)NC(=O)c1cc(Cl)c(Cl)[nH]1)c1cn2cccnc2n1",
    "readout qualifier": "=",
    "CL free [mL/min/kg]": 107
  },
  {
    "compound smiles": "C[C@H](NC(=O)[C@]1(NC(=O)c2cc(Cl)c(Cl)[nH]2)CO[C@H](c2ccccc2)C1)c1ncc2c(n1)CN(C1CCN(C)CC1)C2",
    "readout qualifier": "<",
    "CL free [mL/min/kg]": 45
  },
  {
    "compound smiles": "CNC(=O)[C@H](CCc1ccccc1)NC(=O)c1cc(C)c[nH]1",
    "readout qualifier": "=",
    "CL free [mL/min/kg]": 35
  }
]

----------
test: Metabolic stability in human liver microsomes assessed as unbound intrinsic clearance at 0.5 uM measured after 4 hrs; format: ADME, Microsome
Listed next: entries and their corresponding CL free.

[
  {
    "compound smiles": "O=C(N[C@]1(C(=O)NCc2cn3cccnc3n2)CO[C@@H](c2ccccc2)C1)c1cc(Cl)c(Cl)[nH]1",
    "CL free": "< 35 mL/min/kg"
  },
  {
    "compound smiles": "C[C@H](NC(=O)[C@]1(NC(=O)c2cc(Cl)c(Cl)[nH]2)CO[C@H](c2ccccc2)C1)c1ncc2c(n1)CN([C@H]1CCN(C)C1)C2",
    "CL free": "< 45 mL/min/kg"
  },
  {
    "compound smiles": "COCc1cccc([C@@H]2C[C@](NC(=O)c3cc(Cl)c(Cl)[nH]3)(C(=O)N[C@@H](C)c3ncc4c(n3)CN(C3CCN(C)CC3)C4)CO2)c1",
    "CL free": "< 35 mL/min/kg"
  },
  {
    "compound smiles": "C[C@H](NC(=O)[C@]1(NC(=O)c2cc(Cl)c(Cl)[nH]2)CO[C@H](c2ccccc2)C1)c1ncc2c(n1)CN(C1CN(C)C1)C2",
    "CL free": "< 26.7 mL/min/kg"
  },
  {
    "compound smiles": "C[C@H](NC(=O)[C@]1(NC(=O)c2cc(Cl)c(Cl)[nH]2)CO[C@H](c2ccc(F)cc2)C1)c1ncc2c(n1)CN(C1CCN(C)CC1)C2",
    "CL free": "< 36.7 mL/min/kg"
  },
  {
    "compound smiles": "C[C@H](NC(=O)[C@]1(NC(=O)c2cc(Cl)c(Cl)[nH]2)CO[C@H](c2ccccc2)C1)c1ncc2c(n1)CN(C1COC1)C2",
    "CL free": "< 28.3 mL/min/kg"
  },
  {
    "compound smiles": "CNC(=O)[C@H](CC(C)(C)C)NC(=O)c1cc(Cl)c(Cl)[nH]1",
    "CL free": "< 33 mL/min/kg"
  },
  {
    "compound smiles": "COc1cccc([C@@H]2C[C@](NC(=O)c3cc(Cl)c(Cl)[nH]3)(C(=O)N[C@@H](C)c3ncc4c(n3)CN(C3CCN(C)CC3)C4)CO2)c1",
    "CL free": "< 41.7 mL/min/kg"
  },
  {
    "compound smiles": "CNC(=O)[C@H](CCc1ccccc1)NC(=O)c1cc(Cl)c(Cl)[nH]1",
    "CL free": "< 40 mL/min/kg"
  }
]
